property: pIC50
Reminder that pIC50 means the negative base-10 logarithm of the concentration expressed in mol/L.

Qu. Provide pIC50, recorded with Cytochrome P450 3A4 (Homo sapiens, UniProt P08684), of `COc1cc(CCNc2nc(C#Cc3ccccc3)nc3c2ncn3[C@H]2[C@H](O)[C@H](O)[C@@H]3C[C@@H]32)ccc1O`
Sequence (P08684 whole entry): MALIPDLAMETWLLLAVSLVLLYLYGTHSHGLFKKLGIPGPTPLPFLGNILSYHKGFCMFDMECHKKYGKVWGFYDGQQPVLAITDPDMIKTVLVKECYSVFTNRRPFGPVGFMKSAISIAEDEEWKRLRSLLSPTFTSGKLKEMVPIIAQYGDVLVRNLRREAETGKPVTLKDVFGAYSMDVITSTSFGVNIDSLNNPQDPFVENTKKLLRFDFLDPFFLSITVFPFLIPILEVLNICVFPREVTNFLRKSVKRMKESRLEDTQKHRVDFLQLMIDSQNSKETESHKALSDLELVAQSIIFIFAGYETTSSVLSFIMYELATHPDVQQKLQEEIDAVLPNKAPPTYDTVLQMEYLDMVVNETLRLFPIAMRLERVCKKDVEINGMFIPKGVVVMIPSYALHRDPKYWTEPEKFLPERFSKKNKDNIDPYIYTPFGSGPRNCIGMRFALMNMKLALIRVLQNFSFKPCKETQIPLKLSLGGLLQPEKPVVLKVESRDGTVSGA
Ans. 5.65

----------
# tested_on: UniProt:P11712
# Sequence (P11712 whole entry): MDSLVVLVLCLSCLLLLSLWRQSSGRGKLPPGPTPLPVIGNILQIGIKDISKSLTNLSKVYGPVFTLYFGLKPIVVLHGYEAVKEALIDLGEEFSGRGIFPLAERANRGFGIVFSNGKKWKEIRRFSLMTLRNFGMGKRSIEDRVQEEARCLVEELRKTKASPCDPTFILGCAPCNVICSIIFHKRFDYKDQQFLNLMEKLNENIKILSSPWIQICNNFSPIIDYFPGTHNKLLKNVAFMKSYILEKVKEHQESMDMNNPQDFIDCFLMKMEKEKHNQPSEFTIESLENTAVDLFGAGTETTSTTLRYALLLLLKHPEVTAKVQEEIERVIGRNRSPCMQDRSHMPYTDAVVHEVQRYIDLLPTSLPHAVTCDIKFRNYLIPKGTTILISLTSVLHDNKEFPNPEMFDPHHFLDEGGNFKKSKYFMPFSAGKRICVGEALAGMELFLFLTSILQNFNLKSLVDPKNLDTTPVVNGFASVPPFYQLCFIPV
property: pIC50
Reminder that pIC50 means the negative base-10 logarithm of the concentration expressed in mol/L.

Qu. Identify the reported pIC50 for the following entry. `COc1cc(CCNc2nc(C#Cc3ccccc3)nc3c2ncn3[C@H]2[C@H](O)[C@H](O)[C@@H]3C[C@@H]32)ccc1O`
Ans. 4.84

----------
# tested_on: UniProtKB Q60612
# Sequence (Q60612 whole entry): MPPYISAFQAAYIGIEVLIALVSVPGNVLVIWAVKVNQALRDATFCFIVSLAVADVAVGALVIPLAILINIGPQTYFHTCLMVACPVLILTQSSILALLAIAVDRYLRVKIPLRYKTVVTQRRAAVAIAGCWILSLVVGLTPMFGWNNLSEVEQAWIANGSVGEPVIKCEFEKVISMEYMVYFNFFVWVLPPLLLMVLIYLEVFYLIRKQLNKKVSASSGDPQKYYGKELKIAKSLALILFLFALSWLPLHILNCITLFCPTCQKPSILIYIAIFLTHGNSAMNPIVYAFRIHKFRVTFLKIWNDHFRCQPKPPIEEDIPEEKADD
# experiment_notes: Displacement of [3H]R-PIA from recombinant mouse A1AR expressed in HEK293 cell membranes measured after 60 mins by liquid scintillation counting method
property: pKi
Reminder that pKi means the negative base-10 logarithm of the concentration expressed in mol/L.

Qu. Identify the reported pKi for the following entry. `COc1cc(CCNc2nc(C#Cc3ccc(Br)s3)nc3c2ncn3[C@H]2[C@H](O)[C@H](O)[C@@H]3C[C@@H]32)ccc1O`
Ans. 5.55

Qu. Identify the reported pKi for the following entry. `COc1cc(CCNc2nc(C#Cc3ccccc3)nc3c2ncn3[C@H]2[C@H](O)[C@H](O)[C@@H]3C[C@@H]32)ccc1O`
Ans. 6.23

Qu. Identify the reported pKi for the following entry. `Oc1ccc(CCNc2nc(C#Cc3ccccc3)nc3c2ncn3[C@H]2[C@H](O)[C@H](O)[C@@H]3C[C@@H]32)cc1O`
Ans. 5.85

Qu. Identify the reported pKi for the following entry. `COc1cc(CCNc2nc(C#Cc3ccccc3F)nc3c2ncn3[C@H]2[C@H](O)[C@H](O)[C@@H]3C[C@@H]32)ccc1O`
Ans. 6.21

----------
# tested_on: Adenosine receptor A3 (Homo sapiens)
# Sequence (P0DMS8 whole entry): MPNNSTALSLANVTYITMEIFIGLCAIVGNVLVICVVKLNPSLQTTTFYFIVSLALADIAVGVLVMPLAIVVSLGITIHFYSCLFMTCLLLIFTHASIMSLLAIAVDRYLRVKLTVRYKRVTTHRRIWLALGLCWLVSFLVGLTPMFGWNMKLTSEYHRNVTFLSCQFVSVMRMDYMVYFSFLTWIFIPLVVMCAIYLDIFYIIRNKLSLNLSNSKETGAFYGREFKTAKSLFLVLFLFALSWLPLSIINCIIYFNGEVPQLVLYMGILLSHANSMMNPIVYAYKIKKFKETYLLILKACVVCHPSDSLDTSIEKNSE
property: pKi
Reminder that pKi means the negative base-10 logarithm of the concentration expressed in mol/L.

Qu. Identify the reported pKi for the following entry. `COc1cc(CCNc2nc(C#Cc3ccc(Br)s3)nc3c2ncn3[C@H]2[C@H](O)[C@H](O)[C@@H]3C[C@@H]32)ccc1O`
Ans. 8.49

Qu. Identify the reported pKi for the following entry. `O[C@@H]1[C@H](O)[C@@H]2C[C@@H]2[C@H]1n1cnc2c(NCCc3cccc(F)c3)nc(C#Cc3ccc(Cl)s3)nc21`
Ans. 7.37

Qu. Identify the reported pKi for the following entry. `O[C@@H]1[C@H](O)[C@@H]2C[C@@H]2[C@H]1n1cnc2c(NCCc3cccc(Cl)c3)nc(C#Cc3ccc(Cl)s3)nc21`
Ans. 7.23

Qu. Identify the reported pKi for the following entry. `O[C@@H]1[C@H](O)[C@@H]2C[C@@H]2[C@H]1n1cnc2c(NCCc3cccc(F)c3)nc(C#Cc3ccccc3)nc21`
Ans. 7.44

Qu. Identify the reported pKi for the following entry. `COc1cc(CCNc2nc(C#Cc3ccccc3F)nc3c2ncn3[C@H]2[C@H](O)[C@H](O)[C@@H]3C[C@@H]32)ccc1O`
Ans. 8.27

Qu. Identify the reported pKi for the following entry. `Oc1ccc(CCNc2nc(C#Cc3ccccc3)nc3c2ncn3[C@H]2[C@H](O)[C@H](O)[C@@H]3C[C@@H]32)cc1F`
Ans. 8.04

Qu. Identify the reported pKi for the following entry. `COc1cc(CCNc2nc(I)nc3c2ncn3[C@H]2[C@H](O)[C@H](O)[C@@H]3C[C@@H]32)ccc1O`
Ans. 8.04

Qu. Identify the reported pKi for the following entry. `O[C@@H]1[C@H](O)[C@@H]2C[C@@H]2[C@H]1n1cnc2c(NCCc3ccccc3)nc(C#Cc3ccc(Cl)s3)nc21`
Ans. 8.09

Qu. Identify the reported pKi for the following entry. `COc1cc(CCNc2nc(C#Cc3ccc(F)c(F)c3)nc3c2ncn3[C@H]2[C@H](O)[C@H](O)[C@@H]3C[C@@H]32)ccc1O`
Ans. 7.89

Qu. Identify the reported pKi for the following entry. `COc1ccc(CCNc2nc(C#Cc3ccccc3)nc3c2ncn3[C@H]2[C@H](O)[C@H](O)[C@@H]3C[C@@H]32)cc1OC`
Ans. 7.79

Qu. Identify the reported pKi for the following entry. `O[C@@H]1[C@H](O)[C@@H]2C[C@@H]2[C@H]1n1cnc2c(NCCc3ccc(F)c(F)c3)nc(C#Cc3ccc(Cl)s3)nc21`
Ans. 7.33

Where these numbers come from: ChEMBL document CHEMBL4402597
